For each record, write down the corresponding inhibition at 0.1 µM.
- measuredOn: human recombinant adrenergic α2B receptor (Homo sapiens, UniProt P18089)
- Construct: expressed in transfected cells; host or cells: CHO-K1
- Sequence (P18089 1-450): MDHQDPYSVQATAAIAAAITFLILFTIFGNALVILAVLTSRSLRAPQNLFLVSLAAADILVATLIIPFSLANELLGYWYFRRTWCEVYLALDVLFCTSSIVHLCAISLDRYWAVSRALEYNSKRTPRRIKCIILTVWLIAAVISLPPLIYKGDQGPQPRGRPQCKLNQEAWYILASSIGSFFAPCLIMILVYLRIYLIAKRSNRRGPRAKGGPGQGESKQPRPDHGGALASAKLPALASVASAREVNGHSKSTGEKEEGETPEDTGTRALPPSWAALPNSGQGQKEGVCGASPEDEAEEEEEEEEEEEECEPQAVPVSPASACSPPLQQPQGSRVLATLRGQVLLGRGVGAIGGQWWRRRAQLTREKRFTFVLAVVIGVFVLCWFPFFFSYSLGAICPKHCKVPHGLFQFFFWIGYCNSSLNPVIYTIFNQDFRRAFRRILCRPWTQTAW
- experimentSummary: Radioligand binding, adrenergic α2B receptor ([3H]Rauwolscine)
- cond: 0.1 μM compound, CHO-K1 cells, read-out: Percentage inhibition of ligand binding, Adrenergic α2B
Enter your answer as a number in %; do not include the unit.

Q) Can you look up inhibition at 0.1 µM on human recombinant adrenergic α2B receptor (Homo sapiens, UniProt P18089) for Cc1ccc2c(c1)c1c(n2-c2ccccc2-c2ccc(F)nc2)CCN(C)C1 ?
A) 89

Q) Similarly, Cc1ccc2c(c1)c1c(n2-c2ccc3ccncc3c2)CCN(C)C1 ?
A) 70

Q) Now the compound CNC(=O)c1ccc(-c2ccccc2-n2c3c(c4cc(C)ccc42)CN(C)CC3)cc1
A) 17

Q) Also need CC(=O)Nc1ccc(-c2ccccc2-n2c3c(c4cc(C)ccc42)CN(C)CC3)cn1 , thanks.
A) 71

----------
Answer each item with its documented inhibition at 0.1 µM.
- measuredOn: rat adrenergic α1B receptor (Rattus norvegicus, UniProt P15823)
- Construct: rat adrenergic α1B receptor obtained from Wistar Rat liver; from tissue; host or cells: Wistar rat liver
- Sequence (P15823 whole entry): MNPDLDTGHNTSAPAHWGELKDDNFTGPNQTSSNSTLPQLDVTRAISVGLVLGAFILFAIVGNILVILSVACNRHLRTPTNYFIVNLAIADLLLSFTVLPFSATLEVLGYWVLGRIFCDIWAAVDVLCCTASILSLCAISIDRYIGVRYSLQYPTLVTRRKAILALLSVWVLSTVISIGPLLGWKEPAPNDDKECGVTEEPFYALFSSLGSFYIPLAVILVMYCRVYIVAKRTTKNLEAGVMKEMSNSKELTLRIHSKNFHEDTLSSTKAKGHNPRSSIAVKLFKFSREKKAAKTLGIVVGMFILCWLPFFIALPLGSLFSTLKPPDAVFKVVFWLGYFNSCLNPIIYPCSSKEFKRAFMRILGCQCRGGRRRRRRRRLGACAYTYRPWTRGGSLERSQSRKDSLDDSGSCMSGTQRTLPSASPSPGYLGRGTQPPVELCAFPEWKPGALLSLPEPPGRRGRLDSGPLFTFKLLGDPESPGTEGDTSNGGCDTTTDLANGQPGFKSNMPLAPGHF
- experimentSummary: Radioligand binding, adrenergic α1B receptor ([3H]Prazosin)
- cond: 0.1 μM compound, Wistar rat liver, read-out: Percentage inhibition of ligand binding, Adrenergic α1B
Response body: numeric value in %, unit text excluded.

Q) Enter reported inhibition at 0.1 µM observed with rat adrenergic α1B receptor (Rattus norvegicus, UniProt P15823) for Cc1ccc2c(c1)c1c(n2-c2cscc2-c2cncc3ccccc23)CCN(C)C1
A) 16

Q) Input Cc1ccc2c(c1)c1c(n2-c2cccc(-c3ccc(C)s3)c2)CCN(C)C1
A) 10

Q) # repeat for Cc1ccc2c(c1)c1c(n2-c2ccccc2-c2cccc3[nH]ncc23)CCN(C)C1
A) 71

Q) Same question, Cc1ccc2c(c1)c1c(n2-c2ccccc2-c2ccc(F)cc2)CCN(C)C1 this time
A) 61

Q) Thanks! And Cc1ccc2c(c1)c1c(n2-c2ccc(-c3cccc4ccccc34)cn2)CCN(C)C1 ?
A) 62

Q) Consider next the molecule Cc1ccc2c(c1)c1c(n2-c2cscc2C(=O)N(C)C)CCN(C)C1 in the same way.
A) 10

Q) Please give the result for CNC(=O)c1ccc(-c2cscc2-n2c3c(c4cc(C)ccc42)CN(C)CC3)cn1 too.
A) 64

Q) Cool, now Cc1ccc2c(c1)c1c(n2-c2ccc(-c3ccc(F)cc3)cn2)CCN(C)C1
A) 69

Q) Param item: Cc1ccc2c(c1)c1c(n2-c2ccccc2-c2cccn2C)CCN(C)C1
A) 79

Q) What would you report for Cc1cc(C)c2c(c1)c1c(n2-c2cccc(-c3ccncc3)c2)CCN(C)C1 ?
A) 6

Q) Same read-out for Cc1ccc2c(c1)c1c(n2-c2ccccc2-c2c(C)noc2C)CCN(C)C1 ?
A) 14

Q) Same question, Cc1csc(-c2cscc2-n2c3c(c4cc(C)ccc42)CN(C)CC3)c1 this time
A) 42

Q) Same for CNC(=O)c1ccc(-c2ccccc2-n2c3c(c4cc(C)ccc42)CN(C)CC3)cn1
A) 66

Q) Same for Cc1ccc2c(c1)c1c(n2-c2ccc(-c3ccc(F)nc3)cn2)CCN(C)C1
A) 83

Q) Then this molecule: CNC(=O)c1cccc(-c2cscc2-n2c3c(c4cc(C)ccc42)CN(C)CC3)c1
A) 46

Q) Also need Cc1ccc2c(c1)c1c(n2-c2cscc2-c2cc3ccccc3s2)CCN(C)C1 , thanks.
A) 59

Q) Now consider Cc1ccc2c(c1)c1c(n2-c2cccc(-c3cn[nH]c3)c2)CCN(C)C1 .
A) 18

Q) Another: Cc1ccc2c(c1)c1c(n2-c2ccccc2-c2cnc(N(C)C)nc2)CCN(C)C1
A) 36

Q) Note, next up: Cc1ccc2c(c1)c1c(n2-c2cccc(-c3cnn(C)c3)c2)CCN(C)C1
A) -7

Q) Now consider Cc1ccc2c(c1)c1c(n2-c2ccc(-c3sccc3C)cn2)CCN(C)C1 .
A) 63

Q) # repeat for Cc1ccc2c(c1)c1c(n2-c2cccc(-c3ccc(O)nc3)c2)CCN(C)C1
A) 6

Q) Please do the same for Cc1ccc2c(c1)c1c(n2-c2cccc(-c3ccnn3C)c2)CCN(C)C1 as well.
A) 13

Q) Cc1ccc2c(c1)c1c(n2-c2ccc(-c3cnn(C)c3)cn2)CCN(C)C1 ?
A) 43

Q) Could you do the same for Cc1ccc2c(c1)c1c(n2-c2cccc(-c3cncc4ccccc34)c2)CCN(C)C1 , please?
A) 2
